B1: FBXO34 (parent)
chain: PRYREDPCKQCKKKYVKGDVSLCR

- Variants of: B1
- experiment-description: protein stability index of a GFP-peptide fusion (GPS, HEK-293T) (PSI 1-6); higher = more stable;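 note: lentivirally expressed fusions sorted by FACS into six bins by GFP to DsRed ratio, PSI derived from sequencing read proportions per bin multiplied by bin number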
- run-parameters: c terminus: a fixed tail appended
measured-parameter: protein stability index

variant_notation=Y3T measurement=2.65
variant_notation=K12F measurement=1.79
variant_notation=R24W measurement=2.27
variant_notation=E5R measurement=2.8
variant_notation=K14P measurement=2.85
variant_notation=R2T measurement=2
variant_notation=K14W measurement=2.22
variant_notation=Y3N measurement=2.84
variant_notation=R4F measurement=2.69
variant_notation=C23K measurement=3.29
variant_notation=E5Y measurement=2.51
variant_notation=G18Y measurement=2.35
variant_notation=R4C measurement=2.94
variant_notation=C11I measurement=3.01
variant_notation=R2I measurement=2.98
variant_notation=V16C measurement=3.63
variant_notation=K17L measurement=1.96
variant_notation=K13G measurement=2.68
variant_notation=D6H measurement=2.61
variant_notation=D19W measurement=2.56
variant_notation=Y3L measurement=2.73
variant_notation=G18C measurement=2.94
variant_notation=K14M measurement=2.31
